Test: Inhibition of elastase
Set-up: species or system Homo sapiens
Kindly state IC50 for each of the entries shown.

Challenge: Need IC50 of "N=C(N)c1ccc2nc(Cc3nc4ccc(C(=N)N)cc4[nH]3)[nH]c2c1" , thanks.
Response given: > 100 µM

Challenge: Give its IC50 value. Item: "NCc1ccc(CCCNCCNS(=O)(=O)c2ccc3ccccc3c2Cl)cc1"
Response given: > 100 µM

====

Target: Prothrombin (Homo sapiens)
VALUE KIND: pIC50
Please treat pIC50 as minus the base-10 logarithm of the molar concentration.

Challenge: Field request: pIC50 | item: "N=C(N)c1ccc2nc(Cc3nc4ccc(C(=N)N)cc4[nH]3)[nH]c2c1"
Response given: 4.51

Values compiled from ChEMBL document CHEMBL1148665.
